# system_under_test: dopamine transporter (DAT) (Rattus norvegicus)
# Sequence (P23977 whole entry): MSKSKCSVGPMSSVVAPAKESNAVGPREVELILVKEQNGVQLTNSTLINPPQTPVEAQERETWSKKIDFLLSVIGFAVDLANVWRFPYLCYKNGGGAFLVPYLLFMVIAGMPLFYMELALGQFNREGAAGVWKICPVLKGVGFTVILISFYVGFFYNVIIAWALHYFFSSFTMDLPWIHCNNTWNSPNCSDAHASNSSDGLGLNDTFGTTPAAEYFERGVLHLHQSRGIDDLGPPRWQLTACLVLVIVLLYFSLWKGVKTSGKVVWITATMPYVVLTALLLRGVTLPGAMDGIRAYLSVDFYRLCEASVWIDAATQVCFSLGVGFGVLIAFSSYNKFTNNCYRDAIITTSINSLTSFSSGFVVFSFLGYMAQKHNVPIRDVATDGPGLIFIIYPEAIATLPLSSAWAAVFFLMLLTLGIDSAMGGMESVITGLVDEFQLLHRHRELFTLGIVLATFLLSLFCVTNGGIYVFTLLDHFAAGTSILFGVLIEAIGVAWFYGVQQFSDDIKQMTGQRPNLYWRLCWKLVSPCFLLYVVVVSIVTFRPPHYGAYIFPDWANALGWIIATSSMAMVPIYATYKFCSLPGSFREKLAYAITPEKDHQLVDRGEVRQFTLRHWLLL
# protocol_description: [3H]-dopamine uptake into rat striatal synaptosomes
# study_conditions: read-out: IC50, inhibition of [3H]-dopamine uptake
measurement_kind: IC50 (µM)
Entry rule: numbers only, all in µM.

Task item: May I ask what IC50 has been recorded for CN1CCCC2C(c3ccccc3)C(C3=NCCCC3)C(c3ccccc3)CC21 (stereo not shown) ?
Reply: 12

###

measurement_kind: Ki (µM)
Entry rule: numbers only, all in µM.

Task item: Quick check: Ki on DAT (Rattus norvegicus, UniProt P23977), item CN1CCCC2C(c3ccccc3)C(C3=NCCCC3)C(c3ccccc3)CC21 (stereo not shown) ?
Reply: 89
